Numbers sourced from patent US10351566B2.

ASSAY COMMENT: in vivo
Parameters: species or system mice
CONDITIONS: mouse, in vivo, po, 50 mg/kg, mice, oral 50 mg/kg, 5 min to 8 h; read-out: tissue-to-plasma concentration ratio, liver
EXPERIMENTAL READOUT: Kp

> print(dat)
                                   compound  experimental.readout  value
1  CC(C)(C)C(=O)O[C@@H]1[C@@H]2[C@H]3C[C@H](C[C@@H]1N3Cc1ccccn1)CN2C(=O)CC(F)(F)F (relative stereo)                    Kp    6.5

* * *

ASSAY COMMENT: in vivo
CONDITIONS: mouse, in vivo, iv, 5 mg/kg, mice, intravenous 5 mg/kg, excluding the 8 h time point; read-out: terminal half-life (converted)
EXPERIMENTAL READOUT: half-life (min)

> print(dat)
                                   compound  units.text  value
1  CC(C)(C)C(=O)O[C@@H]1[C@@H]2[C@H]3C[C@H](C[C@@H]1N3Cc1ccccn1)CN2C(=O)CC(F)(F)F (relative stereo) [Formula 1]         min     21
